Test system: Liver
Assay: Metabolic stability assessed as half life in mouse liver microsomes
Format: ADME, Microsome
Settings: microsomes
Parameter: t1/2 (min)

Compound	Parameter	Numeric Result
Cn1cnc(S(=O)(=O)N(Cc2ccc(S(C)(=O)=O)cc2)C2Cc3cc(C#N)ccc3N(Cc3cncn3C)C2)c1 (stereo unspecified)	t1/2	16

###

Test system: Plasmodium falciparum
Test: Antimalarial activity against chloroquine-sensitive Plasmodium falciparum 3D7 in human red cells
Format: functional
Conditions: read-out: ED50 (the source's name)
Recorded EC50 by entry

Molecule	Unit Text	EC50
Cn1cnc(S(=O)(=O)N(Cc2ccc(C#N)cc2)C2Cc3cc(C#N)ccc3N(Cc3cncn3C)C2=O)c1 (centres undefined)	µM	2.1
Cc1c(S(=O)(=O)N(CC(=O)NC(C)(C)C)C2Cc3cc(C#N)ccc3N(Cc3cncn3C)C2=O)ncn1C (centres undefined)	µM	5
Cn1cncc1CN1C(=O)C(N(CC(=O)NC(C)(C)C)S(=O)(=O)c2cccc(F)c2)Cc2cc(C#N)ccc21 (centres undefined)	µM	3.6
Cn1cncc1CN1C(=O)C(N(Cc2ccc(S(C)(=O)=O)cc2)S(=O)(=O)c2ccccn2)Cc2cc(C#N)ccc21 (centres undefined)	µM	1.7
